# Read-out: Monocyte Chemoattractant Protein-1 (MCP1), CCL2 (gene 6347)
# experimentSummary: BSK_SAg_MCP1: BioMAP Diversity Plus: SAg Assay for Monocyte Chemoattractant Protein-1 (MCP1) Biomarker Activity (AID 2283090)
# details: primary human HUVEC with PBMC; actives raise or lower the signal
Activity calls are given as the source filed them. How the source made its calls: active means hit-call score of the fitted dose curve at least 0.9, where 1 is the maximum; inactive means score below 0.9.
metric: AC50

> print(dat)
                                 smilesinput           obsvalue
 1    CCOC(=O)/C=C(C)/C=C/C[C@@H](C)CCCC(C)C     29 µM (active)
 2                               ClCC(Cl)CCl           inactive
 3                           Nc1cccc2ccccc12           inactive
 4                         CC(C)(OO)c1ccccc1           inactive
 5             COc1cc(-c2ccc(N)c(OC)c2)ccc1N           inactive
 6     O=[N+]([O-])c1ccc(O)c([N+](=O)[O-])c1           inactive
 7                ClC(Cl)=C(Cl)C(Cl)=C(Cl)Cl           inactive
 8  C=C(C)C(=O)[O][Sn]([CH2]CCC)([CH2]CCC)[CH2]CCC  0.352 µM (active)
 9               O=c1[nH]c(=O)[nH]c(=O)[nH]1           inactive
10            CCCCCCCCC(=O)NCc1ccc(O)c(OC)c1           inactive
11             Nc1ccc(-c2ccc(N)c(Cl)c2)cc1Cl           inactive
12                      Oc1ccc(-c2ccccc2)cc1           inactive
13                          Oc1c(I)cc(I)cc1I   32.3 µM (active)
14             CCOP(=S)(OCC)SCSP(=S)(OCC)OCC           inactive

###

# experimentSummary: CEETOX_H295R_PROG: CeeTox H295R High-throughput Steroidogenesis Assay for Progesterone (PROG) (AID 2283442)
# details: actives raise or lower the signal
Active and inactive are the calls of the source. Rule for the calls: active = hit-call score of the fitted dose curve at least 0.9, where 1 is the maximum; inactive = score below 0.9.
Classes used: yes (active), no (inactive)

> print(dat)
                                   compound  labelvalue
1          CCOP(=S)(OCC)Oc1nc(Cl)c(Cl)cc1Cl         yes
2                      CC(C)OC(=O)Nc1ccccc1          no
3                                 NNC(=S)NN         yes
4             CCOP(=S)(OCC)SCSP(=S)(OCC)OCC         yes
5            CCCCCCCCC(=O)NCc1ccc(O)c(OC)c1          no
6  C[C@@H]1C[C@@H]([C@H](O)CC2CC(=O)NC(=O)C2)C(=O)[C@@H](C)C1          no
7               CCOP(=S)(OCC)SCCS(=O)(=O)CC         yes
8                    O=C(Cc1ccccc1)c1ccccc1         yes
9  Fc1ccc(C2(Cn3cncn3)OC2c2ccccc2Cl)cc1 (centres undefined)          no

###

# Read-out: CYP2C9 (gene 1559)
# experimentSummary: LTEA_HepaRG_CYP2C9: Life Technologies and Expression Analysis (LTEA) Assay for CYP2C9 using HepaRG (AID 2283484)
# details: mRNA level, 48 h; actives raise or lower the signal
Activity calls are given as the source filed them. Rule for the calls: active = hit-call score of the fitted dose curve at least 0.9, where 1 is the maximum; inactive = score below 0.9.
Classes used: active, inactive

> print(dat)
                                    compound  labelvalue
 1  ClC1(Cl)C2(Cl)C3(Cl)C4(Cl)C(Cl)(Cl)C5(Cl)C3(Cl)C1(Cl)C5(Cl)C24Cl (centres undefined)    inactive
 2                         O=C(O)C(Cl)(Cl)Cl    inactive
 3  CCN1CCC2(CC1)COc1cc3c(cc12)N(C(=O)c1ccc(-c2ccc(-c4nnc(C)o4)cc2C)cc1)CC3      active
 4                                   NC(=O)O    inactive
 5                               ClCC(Cl)CCl    inactive
 6  O=C(Nc1ccc2[nH]ccc2c1)c1cc2cc(F)ccc2n1Cc1cccc(F)c1      active
 7                                  CN(C)N=O    inactive
 8  CC12CC1(C)C(=O)N(c1cc(Cl)cc(Cl)c1)C2=O (centres undefined)    inactive
 9  O=C1C2(Cl)C3(Cl)C4(Cl)C(Cl)(Cl)C5(Cl)C3(Cl)C1(Cl)C5(Cl)C24Cl (centres undefined)      active
10               O=c1[nH]c(=O)[nH]c(=O)[nH]1    inactive
11                            Cn1sc(Cl)cc1=O    inactive
12  CC(C)(c1ccccc1)c1ccc(O)c(C(C)(C)c2ccccc2)c1      active
13                       CCCCCCCCc1ccc(O)cc1    inactive
14  C[C@]12CCC(=O)C[C@@H]1CC[C@@H]1[C@@H]2CC[C@]2(C)[C@@H](O)CC[C@@H]12    inactive
15                   CC(=O)[O][Hg][c]1ccccc1      active
16                         CC(C)(OO)c1ccccc1    inactive
17           CCC(C)(C)c1ccc(O)c(C(C)(C)CC)c1    inactive
18                       C=CC(=O)OCCCCCC(C)C    inactive
19               CC(C)(C)CC(C)(C)c1ccc(O)cc1    inactive

###

# Read-out: Vascular endothelial growth factor receptor 2 (Homo sapiens) (UniProt P35968)
# experimentSummary: BSK_4H_VEGFRII: BioMAP Diversity Plus: 4H Assay for Vascular endothelial growth factor receptor 2 (VEGFR2) Biomarker Activity (AID 2283031);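 on AC50: cell-surface VEGFR2 protein level quantified by ELISA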
# details: primary human endothelial cells (HUVEC); actives raise or lower the signal
Calls of active or inactive are those of the source. How the source made its calls: active means hit-call score of the fitted dose curve at least 0.9, where 1 is the maximum; inactive means score below 0.9.
metric: AC50

> print(dat)
                                    compound          obsvalue
 1  CC(=O)C(Cl)C(=O)N(C)C (configuration not stated)          inactive
 2  CCC(=O)C(CC(C)N(C)C)(c1ccccc1)c1ccccc1 (configuration not stated)          inactive
 3  CC(=O)OC(c1ccccc1)C(Cl)(Cl)Cl (configuration not stated)          inactive
 4    CCOC(=O)/C=C(C)/C=C/C[C@@H](C)CCCC(C)C    33 µM (active)
 5                         O=C(O)C(Cl)(Cl)Cl          inactive
 6     O=[N+]([O-])c1ccc(O)c([N+](=O)[O-])c1          inactive
 7      COP(=S)(OC)Oc1ccc(S(=O)(=O)N(C)C)cc1          inactive
 8      O=C(OC1CCCCC1)c1ccccc1C(=O)OC1CCCCC1  9.97 µM (active)
 9  C[C@@H]1C[C@@H]([C@H](O)CC2CC(=O)NC(=O)C2)C(=O)[C@@H](C)C1  8.73 µM (active)
10                           Oc1cccc2cccnc12          inactive
11  C[C@]12CCC(=O)C[C@@H]1CC[C@@H]1[C@@H]2CC[C@]2(C)[C@@H](O)CC[C@@H]12          inactive
12  CC(C)CCCCCCOC(=O)c1ccccc1C(=O)OCCCCCCC(C)C          inactive

###

# targetOrTestSystem: rat Androgen Receptor (AR), Ar (gene 24208)
# experimentSummary: NVS_NR_rAR: NovaScreen (NVS) Nuclear Receptor Binding Assay for rat Androgen Receptor (AR) (AID 2283366)
Inconclusive results are not listed. The source made the active and inactive calls. How the source made its calls: active means hit-call score of the fitted dose curve at least 0.9, where 1 is the maximum; inconclusive means response in the unintended direction; inactive means score below 0.9.
Classes used: active, inactive

> print(dat)
                                   compound  labelvalue
1                                    N#CCCO    inactive
2     O=[N+]([O-])c1ccc(O)c([N+](=O)[O-])c1    inactive
3  O=C1C2(Cl)C3(Cl)C4(Cl)C(Cl)(Cl)C5(Cl)C3(Cl)C1(Cl)C5(Cl)C24Cl (centres undefined)    inactive
4  Clc1ccc(COC(Cn2ccnc2)c2ccc(Cl)cc2Cl)cc1 (centres undefined)      active

These entries and their values trace back to PubChem BioAssay (EPA / NIEHS).
